- subject-of-test: MLK1/MAP3K9 (Homo sapiens)
- Construct: purchased Reaction Biology Corp
- Sequence (P80192 whole entry): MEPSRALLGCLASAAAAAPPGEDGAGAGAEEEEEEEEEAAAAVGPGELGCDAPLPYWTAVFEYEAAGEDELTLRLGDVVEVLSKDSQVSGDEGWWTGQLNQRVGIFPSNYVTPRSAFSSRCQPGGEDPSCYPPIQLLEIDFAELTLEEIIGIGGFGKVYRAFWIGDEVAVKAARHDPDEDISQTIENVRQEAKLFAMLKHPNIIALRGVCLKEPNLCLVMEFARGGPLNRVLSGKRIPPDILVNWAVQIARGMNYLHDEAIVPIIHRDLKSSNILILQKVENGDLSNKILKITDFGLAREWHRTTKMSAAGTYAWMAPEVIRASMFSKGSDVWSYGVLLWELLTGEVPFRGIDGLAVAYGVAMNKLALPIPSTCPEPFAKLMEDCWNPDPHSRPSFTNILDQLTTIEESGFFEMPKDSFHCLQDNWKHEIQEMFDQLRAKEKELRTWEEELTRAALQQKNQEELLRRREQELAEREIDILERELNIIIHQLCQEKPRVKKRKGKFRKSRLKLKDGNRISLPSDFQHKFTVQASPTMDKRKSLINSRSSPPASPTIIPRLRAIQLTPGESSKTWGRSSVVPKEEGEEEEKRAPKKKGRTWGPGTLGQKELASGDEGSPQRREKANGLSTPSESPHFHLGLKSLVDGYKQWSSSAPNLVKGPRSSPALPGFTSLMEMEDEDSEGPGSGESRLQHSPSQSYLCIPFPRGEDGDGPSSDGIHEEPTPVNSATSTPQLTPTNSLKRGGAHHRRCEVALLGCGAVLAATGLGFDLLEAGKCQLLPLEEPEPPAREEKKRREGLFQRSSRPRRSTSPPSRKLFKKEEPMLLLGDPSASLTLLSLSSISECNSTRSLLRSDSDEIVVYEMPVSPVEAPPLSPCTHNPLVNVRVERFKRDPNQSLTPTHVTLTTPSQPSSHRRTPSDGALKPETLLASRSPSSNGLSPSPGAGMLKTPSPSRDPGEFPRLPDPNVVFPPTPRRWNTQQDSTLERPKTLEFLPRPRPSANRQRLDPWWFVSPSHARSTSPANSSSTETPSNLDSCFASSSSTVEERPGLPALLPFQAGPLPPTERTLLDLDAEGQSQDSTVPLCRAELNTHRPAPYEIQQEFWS
- experimental-protocol: Radiolabeled ATP kinase assay (Reaction Biology Corp.), MLK1
- Format: biochemical
- run-parameters: [Cmpd] 0.1 μM; 10 μM ATP; read-out: % Enzyme Activity Remaining (relative to DMSO controls), MLK1/MAP3K9, Data 1
In plain terms, low remaining activity at 0.1 µM, meaning strictly below 80%, gives Yes, and everything else gives No.

The examples below pair each entry with its known result.
Given Cc1nn(C)c(C)c1-c1c[nH]c2ncc(-c3ccc(CN4CCN(C)CC4)cc3)cc12 [Compound 7ai] , is recorded remaining activity at 0.1 µM strictly lower than 80%?
No

Entry CN1CCN(Cc2ccc(-c3cnc4[nH]cc(-c5cccc(C(F)(F)F)c5)c4c3)cc2)CC1 [Compound 7ab] please
No

Same again, this time with CN1CCN(Cc2ccc(-c3cnc4[nH]cc(-c5cc(C(F)(F)F)cc(C(F)(F)F)c5)c4c3)cc2)CC1 [Compound 7aj]
No

Next: CN1CCN(Cc2ccc(-c3cnc4[nH]cc(-c5cnn(C)c5)c4c3)cc2)CC1 [Compound 7s]
No

---
I'd appreciate it if you could check whether CN1CCN(Cc2ccc(-c3cnc4[nH]cc(-c5cccc(Cl)c5)c4c3)cc2)CC1 [Compound 7ad] has remaining activity at 0.1 µM smaller than 80%.
Yes

###

- subject-of-test: panel of 60 human kinases (Homo sapiens, UniProt P00519)
- Construct: purchased Reaction Biology Corp
- Sequence (P00519 whole entry): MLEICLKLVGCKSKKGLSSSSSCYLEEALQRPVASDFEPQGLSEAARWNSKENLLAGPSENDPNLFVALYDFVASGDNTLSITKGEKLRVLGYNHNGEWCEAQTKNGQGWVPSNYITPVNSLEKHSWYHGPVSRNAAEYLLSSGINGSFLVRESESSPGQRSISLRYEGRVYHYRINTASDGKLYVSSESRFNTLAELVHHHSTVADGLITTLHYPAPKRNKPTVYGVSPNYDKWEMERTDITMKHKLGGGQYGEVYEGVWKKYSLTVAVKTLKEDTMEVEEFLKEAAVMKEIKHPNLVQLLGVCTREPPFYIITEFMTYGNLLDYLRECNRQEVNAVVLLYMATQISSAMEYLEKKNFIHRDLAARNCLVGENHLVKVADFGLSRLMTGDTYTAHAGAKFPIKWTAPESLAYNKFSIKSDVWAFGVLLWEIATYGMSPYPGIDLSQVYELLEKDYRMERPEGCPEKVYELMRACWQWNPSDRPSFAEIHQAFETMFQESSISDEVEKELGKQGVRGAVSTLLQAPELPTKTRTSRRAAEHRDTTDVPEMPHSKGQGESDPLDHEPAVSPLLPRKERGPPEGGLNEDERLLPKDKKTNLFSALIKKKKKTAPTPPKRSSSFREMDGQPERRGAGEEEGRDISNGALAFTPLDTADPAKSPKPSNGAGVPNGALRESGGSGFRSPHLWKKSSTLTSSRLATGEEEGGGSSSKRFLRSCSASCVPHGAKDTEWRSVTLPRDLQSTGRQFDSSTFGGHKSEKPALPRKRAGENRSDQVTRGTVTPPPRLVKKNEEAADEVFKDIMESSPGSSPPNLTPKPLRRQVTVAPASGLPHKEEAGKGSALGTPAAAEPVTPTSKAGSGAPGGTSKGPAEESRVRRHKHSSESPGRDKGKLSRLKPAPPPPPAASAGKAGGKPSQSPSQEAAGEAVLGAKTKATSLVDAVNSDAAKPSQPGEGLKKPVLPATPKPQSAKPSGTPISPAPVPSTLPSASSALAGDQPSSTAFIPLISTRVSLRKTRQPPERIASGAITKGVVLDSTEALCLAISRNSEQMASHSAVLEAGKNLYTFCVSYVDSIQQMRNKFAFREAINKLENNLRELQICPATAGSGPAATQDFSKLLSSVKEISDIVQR
- experimental-protocol: Radiolabeled ATP kinase assay, panel of 60 kinases (Table S5)
- Assay type: biochemical
- run-parameters: ABL1; 0.1 μM; 10 μM ATP; read-out: % Enzyme Activity (relative to DSMO controls)
Note to self: use y only for remaining activity at 0.1 µM readings below 60%; a reading exactly at 60% still gets n.

Reference set, count: 8
Record CN1CCN(Cc2ccc(-c3cnc4[nH]cc(-c5ccc6c(c5)OCCO6)c4c3)cc2)CC1 [Compound 7d] : is its remaining activity at 0.1 µM strictly below 60%?
n

Follow-up entry: CN1CCN(Cc2ccc(-c3cnc4[nH]cc(-c5ccoc5)c4c3)cc2)CC1 [Compound 7w]
n

Also, CN1CCN(Cc2ccc(-c3cnc4[nH]cc(-c5cnn(Cc6ccccc6)c5)c4c3)cc2)CC1 [Compound 7ah] please.
n

Please answer likewise for CN1CCN(Cc2ccc(-c3cnc4[nH]cc(-c5ccc6[nH]ccc6c5)c4c3)cc2)CC1 [Compound 1, reference compound]
y

Another compound: COc1ccccc1-c1c[nH]c2ncc(-c3ccc(CN4CCN(C)CC4)cc3)cc12 [Compound 7at]
y

One more compound: Cc1nn(C)c(C)c1-c1c[nH]c2ncc(-c3ccc(CN4CCN(C)CC4)cc3)cc12 [Compound 7ai]
y

Check CN1CCN(Cc2ccc(-c3cnc4[nH]cc(-c5ccncc5)c4c3)cc2)CC1 [Compound 7n] too.
n

Next compound up: CN1CCN(Cc2ccc(-c3cnc4[nH]cc(-c5cccc(Cl)c5)c4c3)cc2)CC1 [Compound 7ad]
n

Now look at this entry.
Answer whether the compound CN1CCN(Cc2ccc(-c3cnc4[nH]cc(-c5ccccc5Cl)c4c3)cc2)CC1 [Compound 7as] has remaining activity at 0.1 µM strictly less than 60%
y

###

- subject-of-test: panel of 60 human kinases (Homo sapiens, UniProt P11802)
- Construct: purchased Reaction Biology Corp
- Sequence (P11802 whole entry): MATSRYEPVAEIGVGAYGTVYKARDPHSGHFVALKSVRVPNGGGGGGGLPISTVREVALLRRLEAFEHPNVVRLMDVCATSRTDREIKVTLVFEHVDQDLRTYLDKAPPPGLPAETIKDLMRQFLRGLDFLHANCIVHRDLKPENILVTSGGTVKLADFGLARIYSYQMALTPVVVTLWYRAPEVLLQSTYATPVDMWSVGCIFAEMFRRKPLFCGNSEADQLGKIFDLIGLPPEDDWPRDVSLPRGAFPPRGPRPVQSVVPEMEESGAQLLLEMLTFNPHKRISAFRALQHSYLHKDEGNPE
- experimental-protocol: Radiolabeled ATP kinase assay, panel of 60 kinases (Table S5)
- Format: biochemical
- run-parameters: CDK4/cyclin D3; 0.1 μM; 10 μM ATP; read-out: % Enzyme Activity (relative to DSMO controls)
Item-by-item account of remaining activity at 0.1 µM
# number only, unit % dropped from output

Consider the compound shown here: COc1ccccc1-c1c[nH]c2ncc(-c3ccc(CN4CCN(C)CC4)cc3)cc12 What is its recorded remaining activity at 0.1 µM?
24.4

And for CN1CCN(Cc2ccc(-c3cnc4[nH]cc(-c5ccc6[nH]ccc6c5)c4c3)cc2)CC1 [Compound 1, reference compound] ?
49.1

Same thing, different compound: Cc1nn(C)c(C)c1-c1c[nH]c2ncc(-c3ccc(CN4CCN(C)CC4)cc3)cc12
65.4

Ok, now CN1CCN(Cc2ccc(-c3cnc4[nH]cc(-c5cccc(Cl)c5)c4c3)cc2)CC1
58.1

Others:
Form field: reported remaining activity at 0.1 µM of CN1CCN(Cc2ccc(-c3cnc4[nH]cc(-c5ccoc5)c4c3)cc2)CC1
72.2

###

- subject-of-test: panel of 60 human kinases (Homo sapiens, UniProt P24941)
- Construct: purchased Reaction Biology Corp
- experimental-protocol: Radiolabeled ATP kinase assay, panel of 60 kinases (Table S5)
- Type: biochemical
- run-parameters: CDK2/cyclin O; 0.1 μM; 10 μM ATP; read-out: % Enzyme Activity (relative to DSMO controls)
measurement-name: remaining activity at 0.1 µM (%)
Record the value in %, omitting the unit from your answer.

The cases that follow already have their remaining activity at 0.1 µM on record.
So what remaining activity at 0.1 µM did CN1CCN(Cc2ccc(-c3cnc4[nH]cc(-c5ccc6c(c5)OCCO6)c4c3)cc2)CC1 [Compound 7d] get with panel of 60 human kinases (Homo sapiens, UniProt P24941)?
39

Same thing, different molecule: CN1CCN(Cc2ccc(-c3cnc4[nH]cc(-c5cccc(Cl)c5)c4c3)cc2)CC1 [Compound 7ad]
75.1

Next molecule up: CN1CCN(Cc2ccc(-c3cnc4[nH]cc(-c5cnn(Cc6ccccc6)c5)c4c3)cc2)CC1 [Compound 7ah]
19.2

Same question, CN1CCN(Cc2ccc(-c3cnc4[nH]cc(-c5ccoc5)c4c3)cc2)CC1 [Compound 7w] this time
80.2

What do we get for Cc1nn(C)c(C)c1-c1c[nH]c2ncc(-c3ccc(CN4CCN(C)CC4)cc3)cc12 [Compound 7ai] ?
77.9

What about COc1ccccc1-c1c[nH]c2ncc(-c3ccc(CN4CCN(C)CC4)cc3)cc12 [Compound 7at] ?
29.6

Moving on to CN1CCN(Cc2ccc(-c3cnc4[nH]cc(-c5ccccc5Cl)c4c3)cc2)CC1 [Compound 7as]
51.2

What about CN1CCN(Cc2ccc(-c3cnc4[nH]cc(-c5ccncc5)c4c3)cc2)CC1 [Compound 7n] ?
43.7

Turning to the following molecule.
Reported remaining activity at 0.1 µM for panel of 60 human kinases (Homo sapiens, UniProt P24941), given CN1CCN(Cc2ccc(-c3cnc4[nH]cc(-c5ccc6[nH]ccc6c5)c4c3)cc2)CC1 [Compound 1, reference compound] ?
72.5

###

- subject-of-test: panel of 60 human kinases (Homo sapiens, UniProt Q00535)
- Construct: purchased Reaction Biology Corp
- Sequence (Q00535 whole entry): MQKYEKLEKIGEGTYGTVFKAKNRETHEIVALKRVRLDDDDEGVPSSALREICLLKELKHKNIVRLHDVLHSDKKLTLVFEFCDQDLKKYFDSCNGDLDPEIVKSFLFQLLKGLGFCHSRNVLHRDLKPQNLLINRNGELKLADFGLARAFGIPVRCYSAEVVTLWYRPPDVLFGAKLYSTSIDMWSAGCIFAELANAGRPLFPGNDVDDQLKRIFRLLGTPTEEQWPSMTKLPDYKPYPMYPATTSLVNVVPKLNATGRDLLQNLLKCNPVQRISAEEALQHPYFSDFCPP
- experimental-protocol: Radiolabeled ATP kinase assay, panel of 60 kinases (Table S5)
- Format: biochemical
- run-parameters: CDK5/p35; 0.1 μM; 10 μM ATP; read-out: % Enzyme Activity (relative to DSMO controls)
The following molecules are shown together with reported remaining activity at 0.1 µM values.
Express the result in % but write the number alone.

What does the data say about its remaining activity at 0.1 µM? Entry: Cc1nn(C)c(C)c1-c1c[nH]c2ncc(-c3ccc(CN4CCN(C)CC4)cc3)cc12
87.9

And what about the molecule CN1CCN(Cc2ccc(-c3cnc4[nH]cc(-c5ccccc5Cl)c4c3)cc2)CC1 ?
36

Again, but for CN1CCN(Cc2ccc(-c3cnc4[nH]cc(-c5cccc(Cl)c5)c4c3)cc2)CC1
83.9

// next record CN1CCN(Cc2ccc(-c3cnc4[nH]cc(-c5cnn(Cc6ccccc6)c5)c4c3)cc2)CC1
46.3

###

- subject-of-test: MLK3/MAP3K11 (Homo sapiens)
- Construct: purchased Reaction Biology Corp
- Sequence (Q16584 whole entry): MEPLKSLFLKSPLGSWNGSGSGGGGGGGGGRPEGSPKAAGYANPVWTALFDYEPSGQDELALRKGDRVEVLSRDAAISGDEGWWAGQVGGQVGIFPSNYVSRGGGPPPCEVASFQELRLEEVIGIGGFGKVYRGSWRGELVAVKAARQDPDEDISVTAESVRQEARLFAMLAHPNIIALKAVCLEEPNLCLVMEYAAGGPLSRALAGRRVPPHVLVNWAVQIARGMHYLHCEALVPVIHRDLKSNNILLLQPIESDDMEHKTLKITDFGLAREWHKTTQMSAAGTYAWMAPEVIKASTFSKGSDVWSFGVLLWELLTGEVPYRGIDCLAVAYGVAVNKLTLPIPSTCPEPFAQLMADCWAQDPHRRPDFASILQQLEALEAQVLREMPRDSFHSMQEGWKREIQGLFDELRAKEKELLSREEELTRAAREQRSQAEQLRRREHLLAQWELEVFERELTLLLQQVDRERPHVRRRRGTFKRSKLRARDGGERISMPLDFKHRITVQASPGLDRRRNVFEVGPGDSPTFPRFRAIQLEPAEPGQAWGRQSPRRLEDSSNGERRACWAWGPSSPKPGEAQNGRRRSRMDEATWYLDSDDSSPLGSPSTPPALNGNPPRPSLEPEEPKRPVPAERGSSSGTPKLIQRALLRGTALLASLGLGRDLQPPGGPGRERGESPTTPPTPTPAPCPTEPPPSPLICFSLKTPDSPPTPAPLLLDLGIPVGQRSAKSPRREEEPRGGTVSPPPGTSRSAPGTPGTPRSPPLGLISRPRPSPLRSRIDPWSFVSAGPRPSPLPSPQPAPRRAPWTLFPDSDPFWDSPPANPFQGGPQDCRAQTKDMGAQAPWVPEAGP
- experimental-protocol: Radiolabeled ATP kinase assay (Reaction Biology Corp.), MLK3
- Assay type: biochemical
- run-parameters: [Cmpd] 0.1 μM; 10 μM ATP
Catalogue of % Enzyme Activity Remaining (relative to DMSO controls), MLK3/MAP3K11, Data 2 readings, one per entry.
Write the figure, then the unit, nothing else.

Known % Enzyme Activity Remaining (relative to DMSO controls), MLK3/MAP3K11, Data 2 results, listed for orientation:
Endpoint output: % Enzyme Activity Remaining (relative to DMSO controls), MLK3/MAP3K11, Data 2 of c1cc2cc(-c3c[nH]c4ncc(-c5ccc(CN6CC7CCC(C6)O7)cc5)cc34)ccc2[nH]1 [Compound 12a] . Value?
46.74%

Input CN1CCN(Cc2ccc(-c3cnc4[nH]cc(-c5ccc(S(C)(=O)=O)nc5)c4c3)cc2)CC1
90.70%

Entry to check: CN1CCN(Cc2ccc(-c3cnc4[nH]cc(-c5cccc(OCc6ccccc6)c5)c4c3)cc2)CC1
45.09%

Input Cc1cc(-c2c[nH]c3ncc(-c4ccc(CN5CCN(C)CC5)cc4)cc23)cnc1N
57.04%

Check CNC(=O)Nc1ccc(-c2c[nH]c3ncc(-c4ccc(CN5CCN(C)CC5)cc4)cc23)cc1 too.
46.17%

Please answer likewise for CC(=O)c1ccc(-c2c[nH]c3ncc(-c4ccc(CN5CCN(C)CC5)cc4)cc23)cc1
65.08%

Follow-up entry: Cc1nn(C)c(C)c1-c1c[nH]c2ncc(-c3ccc(CN4CCN(C)CC4)cc3)cc12
88.00%

Now turn to the next molecule.
Which % Enzyme Activity Remaining (relative to DMSO controls), MLK3/MAP3K11, Data 2 is reported for this molecule? CN1CCN(Cc2ccc(-c3cnc4[nH]cc(-c5ccccc5)c4c3)cc2)CC1
43.30%
